tested on: PIP5K1A; details: Compound Concentration (nM):1000;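 further: KINOMEscan scanMAX binding as percent activity remaining versus control; lower means stronger binding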
The following compounds are listed with their measured Percent Control values.
# number only, unit % dropped from output

Illustrative cases are given below, each with its answer.
Cl.O=C(Nc1ccc(Oc2ccc3[nH]c(NC(=O)c4ccco4)nc3c2)cc1)Nc1cc(C(F)(F)F)ccc1F [GW683134A]
100
COc1cc2ncn(-c3cc(O[C@H](C)c4ccccc4Cl)c(C(N)=O)s3)c2cc1OC [GSK237701A]
0
CC1=C(C(=O)Nc2ccc3[nH]ncc3c2)C(c2ccc(Cl)c(Cl)c2)CC(=O)N1 (stereo not shown) [GSK299115A]
86
O=C1Nc2ccc(C(=O)c3ccco3)cc2C1=Cc1cc(Cl)c(O)c(Cl)c1 [GW406108X]
88
Nc1ncnc2occ(-c3ccc(NC(=O)Nc4cc(C(F)(F)F)ccc4F)cc3)c12 [GW770249X]
100
COc1cccc(-c2c[nH]c3c(N/N=C/c4ccncc4)ncnc23)c1 [GW814408X]
71

Query :: Item COc1cc(C=NNc2ncnc3c2cnn3-c2ccccc2)ccc1O [GW513184X] has what recorded Percent Control?
Result :: 29

These measurements were taken from paper PMC7826789.
